# Test system: HCT116 cells
# test.method.notes: In vitro assay of inhibition of proliferation in whole cells (MTS)
# Type: cell-based
# reported.conditions: Homo sapiens, HCT-116, 72 hours treatment, read-out: Test (b) IC50
Assignment: determine reported IC50 for the given molecules.
Could you kindly put the unit after your number?

Some solved entries appear below for comparison.
# molecule, IC50
records = [
    ("N#Cc1cc(CN2CCC(c3ccccn3)C2)cnc1-c1ccc(C(=O)Nc2ccccc2N)cc1 (stereo not shown)", "211 nM"),
    ("C[C@@H]1CC[C@@H](C)N1Cc1cnc(-c2ccc(C(=O)Nc3ccccc3N)cc2)c(C#N)c1", "218 nM"),
    ("N#Cc1cccnc1-c1ccc(C(=O)Nc2ccccc2N)cc1", "289 nM"),
]

Then this molecule:
Request: // returns reported IC50 for input CC(C)N(C)Cc1cnc(-c2ccc(C(=O)Nc3ccccc3N)cc2)c(C#N)c1
Response: 287 nM

meta.source: patent US7897778B2
